Test system: HL60 cells
Assay: Cell cycle analysis (PI, flow cytometry)
Type: cell-based, human
Conditions: HL60, 10.0 µM, 24 h
The reader will find reported %G2-M values listed item by item below.
reportedMetric: %G2-M (%)

| molecule | reportedMetric | measurement |
| --- | --- | --- |
| CS(=O)(=O)c1ccc(C(=O)NN=Cc2cccc3ccccc23)cc1 [Compound 6] | %G2-M | 23.27 |
| CS(=O)(=O)c1ccc(C(=O)N/N=C/c2ccccc2O)cc1 [Compound 16] | %G2-M | 38.09 |
| Cc1ccc(C=NNC(=O)c2ccc(S(C)(=O)=O)cc2)cc1 [Compound 9] | %G2-M | 29.44 |
| CCN(CC)c1ccc(/C=N/NC(=O)c2ccc(S(C)(=O)=O)cc2)c(O)c1 [Compound 20] | %G2-M | 34.29 |

----------
Tested on: A549/ATCC
Test: NCI antitumor screen (SRB)
Type: cell-based
Conditions: Homo sapiens, one dose 10 µM, read-out: Growth inhibition percentage (GI%)
reportedMetric: inhibition at 10 µM

| compound | assayedTarget | reportedMetric | measurement |
| --- | --- | --- | --- |
| Cc1ccc(NC(=O)c2ccc(CN3CCN(C)CC3)cc2)cc1Nc1nccc(-c2cccnc2)n1 [Imatinib, imatinib, reference compound] | A549/ATCC | inhibition at 10 µM | < 10% |
| COc1ccccc1C=NNC(=O)c1ccc(S(C)(=O)=O)cc1 [Compound 15] | A549/ATCC | inhibition at 10 µM | 11.9% |
| CS(=O)(=O)c1ccc(C(=O)NN=Cc2cccc3ccccc23)cc1 [Compound 6] | A549/ATCC | inhibition at 10 µM | 58.7% |
| CS(=O)(=O)c1ccc(C(=O)N/N=C/c2ccccc2O)cc1 [Compound 16] | A549/ATCC | inhibition at 10 µM | 61.2% |
| COc1ccc(C=NNC(=O)c2ccc(S(C)(=O)=O)cc2)cc1 [Compound 10] | A549/ATCC | inhibition at 10 µM | 29.8% |
| COc1cc(/C=N/NC(=O)c2ccc(S(C)(=O)=O)cc2)ccc1O [Compound 19] | A549/ATCC | inhibition at 10 µM | 29.3% |
| CCN(CC)c1ccc(/C=N/NC(=O)c2ccc(S(C)(=O)=O)cc2)c(O)c1 [Compound 20] | A549/ATCC | inhibition at 10 µM | 87.5% |
| CS(=O)(=O)c1ccc(C(=O)NN=Cc2ccccc2Cl)cc1 [Compound 13] | A549/ATCC | inhibition at 10 µM | 21.6% |
| Cc1ccc(C=NNC(=O)c2ccc(S(C)(=O)=O)cc2)cc1 [Compound 9] | A549/ATCC | inhibition at 10 µM | 12.7% |
| CS(=O)(=O)c1ccc(C(=O)NN=Cc2ccc(Cl)cc2Cl)cc1 [Compound 17] | A549/ATCC | inhibition at 10 µM | 13.7% |
| CS(=O)(=O)c1ccc(C(=O)NN=Cc2ccc3c(c2)OCO3)cc1 [Compound 22] | A549/ATCC | inhibition at 10 µM | 32.3% |
| CS(=O)(=O)c1ccc(C(=O)NN=Cc2ccccc2F)cc1 [Compound 14] | A549/ATCC | inhibition at 10 µM | 29.3% |
| CS(=O)(=O)c1ccc(C(=O)NN=Cc2ccc(Cl)c(Cl)c2)cc1 [Compound 18] | A549/ATCC | inhibition at 10 µM | 20.1% |
| CS(=O)(=O)c1ccc(C(=O)NN=Cc2cccnc2)cc1 [Compound 5] | A549/ATCC | inhibition at 10 µM | 10.6% |
| CS(=O)(=O)c1ccc(C(=O)NN=Cc2ccc(F)cc2)cc1 [Compound 8] | A549/ATCC | inhibition at 10 µM | 11.1% |
| COc1cc(C=NNC(=O)c2ccc(S(C)(=O)=O)cc2)cc(OC)c1OC [Compound 23] | A549/ATCC | inhibition at 10 µM | 22.8% |
| COc1cc(OC)c(OC)cc1/C=N/NC(=O)c1ccc(S(C)(=O)=O)cc1 [Compound 24] | A549/ATCC | inhibition at 10 µM | 17.1% |
| CN(C)c1ccc(C=NNC(=O)c2ccc(S(C)(=O)=O)cc2)cc1 [Compound 12] | A549/ATCC | inhibition at 10 µM | 28.4% |
| O=c1[nH]cc(F)c(=O)[nH]1 [Compound 5-Fu, 5-fluorouracil, reference compound] | A549/ATCC | inhibition at 10 µM | 65.8% |
| CS(=O)(=O)c1ccc(C(=O)NN=Cc2ccccc2)cc1 [Compound 4] | A549/ATCC | inhibition at 10 µM | 28.5% |

----------
System: COLO 205
Assay: NCI antitumor screen (SRB)
Assay type: cell-based
Settings: Homo sapiens, one dose 10 µM, read-out: Growth inhibition percentage (GI%)
Classify as follows. Reported inhibition at 10 µM greater than or equal to 70%: class 1. Reported inhibition at 10 µM below: class 0.

| compound | assignedCategory |
| --- | --- |
| COc1cc(C=NNC(=O)c2ccc(S(C)(=O)=O)cc2)cc(OC)c1OC [Compound 23] | class 0 |
| O=c1[nH]cc(F)c(=O)[nH]1 [Compound 5-Fu, 5-fluorouracil, reference compound] | class 0 |
| Cc1ccc(C=NNC(=O)c2ccc(S(C)(=O)=O)cc2)cc1 [Compound 9] | class 0 |
| CCN(CC)c1ccc(/C=N/NC(=O)c2ccc(S(C)(=O)=O)cc2)c(O)c1 [Compound 20] | class 1 |
| CS(=O)(=O)c1ccc(C(=O)NN=Cc2cccc3ccccc23)cc1 [Compound 6] | class 0 |
| Cc1ccc(NC(=O)c2ccc(CN3CCN(C)CC3)cc2)cc1Nc1nccc(-c2cccnc2)n1 [Imatinib, imatinib, reference compound] | class 0 |

----------
System: MCF7
Assay: NCI antitumor screen (SRB)
Type: cell-based
Conditions: Homo sapiens, one dose 10 µM, read-out: Growth inhibition percentage (GI%)
The reader will find reported inhibition at 10 µM values listed item by item below.
reportedMetric: inhibition at 10 µM (%)

| compound | reportedMetric | resultUnits | measurementQualifier | measurement |
| --- | --- | --- | --- | --- |
| O=c1[nH]cc(F)c(=O)[nH]1 [Compound 5-Fu, 5-fluorouracil, reference compound] | inhibition at 10 µM | % | = | 88.5 |
| CS(=O)(=O)c1ccc(C(=O)NN=Cc2cccc3ccccc23)cc1 | inhibition at 10 µM | % | = | 55.1 |
| Cc1ccc(C=NNC(=O)c2ccc(S(C)(=O)=O)cc2)cc1 | inhibition at 10 µM | % | = | 21.4 |
| CS(=O)(=O)c1ccc(C(=O)N/N=C/c2ccccc2O)cc1 | inhibition at 10 µM | % | = | 77.5 |
| Cc1ccc(NC(=O)c2ccc(CN3CCN(C)CC3)cc2)cc1Nc1nccc(-c2cccnc2)n1 [Imatinib, imatinib, reference compound] | inhibition at 10 µM | % | < | 10 |
| CCN(CC)c1ccc(/C=N/NC(=O)c2ccc(S(C)(=O)=O)cc2)c(O)c1 | inhibition at 10 µM | % | = | 91.2 |

----------
Test system: KM12
Experiment: NCI antitumor screen (SRB)
Type: cell-based
Conditions: Homo sapiens, one dose 10 µM, read-out: Growth inhibition percentage (GI%)

| molecule | measurementQualifier | inhibition at 10 µM (%) |
| --- | --- | --- |
| CS(=O)(=O)c1ccc(C(=O)N/N=C/c2ccccc2O)cc1 | = | 65.9 |
| Cc1ccc(NC(=O)c2ccc(CN3CCN(C)CC3)cc2)cc1Nc1nccc(-c2cccnc2)n1 [Imatinib, imatinib, reference compound] | < | 10 |
| O=c1[nH]cc(F)c(=O)[nH]1 [Compound 5-Fu, 5-fluorouracil, reference compound] | = | 59.3 |
| Cc1ccc(C=NNC(=O)c2ccc(S(C)(=O)=O)cc2)cc1 | = | 25.1 |
| CS(=O)(=O)c1ccc(C(=O)NN=Cc2cccc3ccccc23)cc1 | = | 49.2 |
| CCN(CC)c1ccc(/C=N/NC(=O)c2ccc(S(C)(=O)=O)cc2)c(O)c1 | = | 74.1 |

----------
Tested on: HCT-15
Experiment: NCI antitumor screen (SRB)
Format: cell-based
Details: Homo sapiens, one dose 10 µM, read-out: Growth inhibition percentage (GI%)

| molecule | inhibition at 10 µM, % |
| --- | --- |
| CS(=O)(=O)c1ccc(C(=O)NN=Cc2cccc3ccccc23)cc1 | 50.2 |
| CCN(CC)c1ccc(/C=N/NC(=O)c2ccc(S(C)(=O)=O)cc2)c(O)c1 | 71.5 |
| CS(=O)(=O)c1ccc(C(=O)N/N=C/c2ccccc2O)cc1 | 82 |
| O=c1[nH]cc(F)c(=O)[nH]1 [Compound 5-Fu, 5-fluorouracil, reference compound] | 73.5 |
| Cc1ccc(NC(=O)c2ccc(CN3CCN(C)CC3)cc2)cc1Nc1nccc(-c2cccnc2)n1 [Imatinib, imatinib, reference compound] | 11.5 |
| Cc1ccc(C=NNC(=O)c2ccc(S(C)(=O)=O)cc2)cc1 | 16.3 |
